- Tested on: fetal calf serum-associated exonuclease
- protocol-details: Nuclease resistance: 2 h incubation in cell culture medium with 10% fetal calf serum, HPLC of parent compound
- Format: in vitro ADME
- applied-conditions: HPLC peak area of parent compound after 2.0 hr at 37° C. in RPMI 1640 with 10% FCS
readout-kind: AREA-MAJOR PEAK/2.0 HR
Give the figure by itself; no unit, no explanation.

Query block: Would you kindly share the measured AREA-MAJOR PEAK/2.0 HR for 5' XX GGA GCT GGT GGC GTA XX (A) 3' (antisense GGAGCTGGTGGCGTA; two triethylene glycol units at each end, extra 3' A, further chemistry not given here) [Ref. Code 8, TEG-terminated anti-RAS oncogene DNA, X is TEG] ?
Result block: 0.1777

Query block: Requested field: AREA-MAJOR PEAK/2.0 HR. Item: 5' X CCT CGA CCA CCG CAT X (A) 3' (antisense CCTCGACCACCGCAT; triethylene glycol unit at both ends, extra 3' A, further chemistry not given here) [Ref. Code 9, TEG-terminated anti-RAS oncogene DNA, X is TEG]
Result block: 0.3258

---

- Test system: fetal calf serum-associated exonuclease
- protocol-details: Nuclease resistance: 2 h incubation in cell culture medium with 10% fetal calf serum, HPLC of parent compound
- Assay type: in vitro ADME
- applied-conditions: HPLC peak area of parent compound after 2.0 hr at 37° C. in RPMI 1640 with 10% FCS
readout-kind: AREA-MAJOR PEAK/2.0 HR
// response body must contain only the number

Query block: Tell me the measured AREA-MAJOR PEAK/2.0 HR of 5' CCT CGA CCA CCG CAT 3' (DNA CCTCGACCACCGCAT; DNA, backbone and methylation of C not given here) [Ref. Code 11, unmodified oligodeoxynucleotide made by standard solid phase phosphoramidite procedures, comparison, reference compound] , please.
Result block: 0.3177

Query block: Which value of AREA-MAJOR PEAK/2.0 HR has been reported for 5' X GGA GCT GGT GGC GTA X (A) 3' (antisense GGAGCTGGTGGCGTA; triethylene glycol unit at both ends, extra 3' A, further chemistry not given here) [Ref. Code 7, TEG-terminated anti-RAS oncogene DNA, X is TEG] in the records?
Result block: 0.3663

Query block: Data request, read-out AREA-MAJOR PEAK/2.0 HR, for 5' XX CCT CGA CCA CCG CAT XX (A) 3' (antisense CCTCGACCACCGCAT; two TEG at each end, 3' A, chemistry not fully specified) [Ref. Code 10, TEG-terminated anti-RAS oncogene DNA, X is TEG]
Result block: 0.3697

---

Task for the reader: assign each of the following substances its reported AREA-MAJOR PEAK/0.0 MIN.
- System: fetal calf serum-associated exonuclease
- protocol-details: Nuclease resistance: 2 h incubation in cell culture medium with 10% fetal calf serum, HPLC of parent compound
- Assay type: in vitro ADME
- applied-conditions: HPLC peak area of parent compound, 260 nm, 0.0 min
Just the number, please, no unit attached.

Query block: Look at this substance and give its reported AREA-MAJOR PEAK/0.0 MIN. 5' XX GGA GCT GGT GGC GTA XX (A) 3' (antisense GGAGCTGGTGGCGTA; two triethylene glycol units at each end, extra 3' A, further chemistry not given here) [Ref. Code 8, TEG-terminated anti-RAS oncogene DNA, X is TEG]
Result block: 0.2164

Query block: # AREA-MAJOR PEAK/0.0 MIN lookup, item 5' X GGA GCT GGT GGC GTA X (A) 3' (antisense GGAGCTGGTGGCGTA; triethylene glycol unit at both ends, extra 3' A, further chemistry not given here) [Ref. Code 7, TEG-terminated anti-RAS oncogene DNA, X is TEG]
Result block: 0.2325

Query block: GET /values?readout=AREA-MAJOR PEAK/0.0 MIN&item= 5' CCT CGA CCA CCG CAT 3' (DNA CCTCGACCACCGCAT; DNA, backbone and methylation of C not given here) [Ref. Code 11, unmodified oligodeoxynucleotide made by standard solid phase phosphoramidite procedures, comparison, reference compound]
Result block: 1.2861

Query block: I have this substance here, 5' XX CCT CGA CCA CCG CAT XX (A) 3' (antisense CCTCGACCACCGCAT; two TEG at each end, 3' A, chemistry not fully specified) [Ref. Code 10, TEG-terminated anti-RAS oncogene DNA, X is TEG] , and I need its recorded AREA-MAJOR PEAK/0.0 MIN.
Result block: 0.3642

Query block: Given the entry 5' X CCT CGA CCA CCG CAT X (A) 3' (antisense CCTCGACCACCGCAT; triethylene glycol unit at both ends, extra 3' A, further chemistry not given here) [Ref. Code 9, TEG-terminated anti-RAS oncogene DNA, X is TEG] , report its measured AREA-MAJOR PEAK/0.0 MIN.
Result block: 0.3744

---

- Test system: fetal calf serum-associated exonuclease
- protocol-details: Nuclease resistance: 2 h incubation in cell culture medium with 10% fetal calf serum, HPLC of parent compound
- Format: in vitro ADME
- applied-conditions: 2 hours at 37° C., 6 or 7 μM, RPMI 1640 medium with 10% heat inactivated FCS
readout-kind: % DEGRADATION MAJOR PEAK (%)
Write the answer as a number in %, unit excluded.

Query block: I am curious: what % DEGRADATION MAJOR PEAK value has been reported for 5' XX CCT CGA CCA CCG CAT XX (A) 3' (antisense CCTCGACCACCGCAT; two TEG at each end, 3' A, chemistry not fully specified) [Ref. Code 10, TEG-terminated anti-RAS oncogene DNA, X is TEG] ?
Result block: 0.0

Query block: Look up % DEGRADATION MAJOR PEAK: 5' CCT CGA CCA CCG CAT 3' (DNA CCTCGACCACCGCAT; DNA, backbone and methylation of C not given here) [Ref. Code 11, unmodified oligodeoxynucleotide made by standard solid phase phosphoramidite procedures, comparison, reference compound]
Result block: 75.3

Query block: Given the entry 5' X GGA GCT GGT GGC GTA X (A) 3' (antisense GGAGCTGGTGGCGTA; triethylene glycol unit at both ends, extra 3' A, further chemistry not given here) [Ref. Code 7, TEG-terminated anti-RAS oncogene DNA, X is TEG] , report its measured % DEGRADATION MAJOR PEAK.
Result block: 0.0

Query block: Find the recorded % DEGRADATION MAJOR PEAK belonging to 5' XX GGA GCT GGT GGC GTA XX (A) 3' (antisense GGAGCTGGTGGCGTA; two triethylene glycol units at each end, extra 3' A, further chemistry not given here) [Ref. Code 8, TEG-terminated anti-RAS oncogene DNA, X is TEG] and report it.
Result block: 17.9

Query block: Using the record for 5' X CCT CGA CCA CCG CAT X (A) 3' (antisense CCTCGACCACCGCAT; triethylene glycol unit at both ends, extra 3' A, further chemistry not given here) [Ref. Code 9, TEG-terminated anti-RAS oncogene DNA, X is TEG] , report its % DEGRADATION MAJOR PEAK.
Result block: 13.0
